Biological target: T1, human LAG3 expressed on cells (human, UniProt P18627 23-525)
T1 sequence (looked up): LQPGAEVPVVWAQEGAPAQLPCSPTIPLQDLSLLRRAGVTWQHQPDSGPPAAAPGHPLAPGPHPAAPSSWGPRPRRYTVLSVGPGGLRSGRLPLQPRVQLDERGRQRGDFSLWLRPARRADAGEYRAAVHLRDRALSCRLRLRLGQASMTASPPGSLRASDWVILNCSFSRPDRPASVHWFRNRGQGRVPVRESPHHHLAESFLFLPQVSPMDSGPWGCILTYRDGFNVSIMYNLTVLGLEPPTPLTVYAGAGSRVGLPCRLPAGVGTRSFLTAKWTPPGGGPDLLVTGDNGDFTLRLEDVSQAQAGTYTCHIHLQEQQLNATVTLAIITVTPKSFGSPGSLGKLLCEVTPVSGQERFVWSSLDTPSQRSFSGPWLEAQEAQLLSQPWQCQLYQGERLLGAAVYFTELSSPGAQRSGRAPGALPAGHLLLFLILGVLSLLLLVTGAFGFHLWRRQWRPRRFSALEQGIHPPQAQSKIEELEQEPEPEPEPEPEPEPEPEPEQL
Test: cell-based or functional assay
Recorded IL-2, % of BMS, at 0.137174211 ug/mL, one value per entry.
Give your result in % as a bare value.

sdAb No. 20 (VHH, Fc of the tested form not described; also called sdAb 20; not shown: Fc part implied by anti-human Fc capture) VHH: QVQLVESGGGLVQPGGSLRLSCAASGLTLDGYAVGWFRQAPGKDREGLSCISGSDGSTHYLDSVKGRFTISRDNAKSTMALQMNSLQFGDTAIYYCAARRGSCSGSWTYWGQGTQVTVSS    6.06
sdAb No. 21 (VHH, Fc of the tested form not described; also called sdAb 21; not shown: Fc part implied by anti-human Fc capture) VHH: QLQLVESGGGLVQPGGSLRLSCAASGLTLDGYAIAWFRQAPGKEREGLSCISGTDGSTHYLDSVKGRFTISRDNGKNTMALQMNSLQFGDTAIYYCAARRGSCSGSWTYWGQGTQITVSS    21.7

Consider the record given below.
Bench note: what IL-2, % of BMS, at 0.137174211 ug/mL did sdAb No. 18 (VHH, Fc of the tested form not described; also called sdAb 18; not shown: Fc part implied by anti-human Fc capture) VHH: QVQLVESGGGLVQPGGSLRLSCAASGFTLNEHAIGWFRRAPGKEREGVSCISSSDGSTYYHDSVKGRFNMSRDDAKNSVYLQMSSLKPEDTAIYYCAAALGRDCQGGQWKTSSWGQGTQVTVSS show?
5.27
